# TEST_SYSTEM: Full-length human PRMT1 isoform 1 (Homo sapiens, UniProt Q99873)
# Construct: GST-tagged PRMT1
# Sequence (Q99873 with tags, fused parts or gaps): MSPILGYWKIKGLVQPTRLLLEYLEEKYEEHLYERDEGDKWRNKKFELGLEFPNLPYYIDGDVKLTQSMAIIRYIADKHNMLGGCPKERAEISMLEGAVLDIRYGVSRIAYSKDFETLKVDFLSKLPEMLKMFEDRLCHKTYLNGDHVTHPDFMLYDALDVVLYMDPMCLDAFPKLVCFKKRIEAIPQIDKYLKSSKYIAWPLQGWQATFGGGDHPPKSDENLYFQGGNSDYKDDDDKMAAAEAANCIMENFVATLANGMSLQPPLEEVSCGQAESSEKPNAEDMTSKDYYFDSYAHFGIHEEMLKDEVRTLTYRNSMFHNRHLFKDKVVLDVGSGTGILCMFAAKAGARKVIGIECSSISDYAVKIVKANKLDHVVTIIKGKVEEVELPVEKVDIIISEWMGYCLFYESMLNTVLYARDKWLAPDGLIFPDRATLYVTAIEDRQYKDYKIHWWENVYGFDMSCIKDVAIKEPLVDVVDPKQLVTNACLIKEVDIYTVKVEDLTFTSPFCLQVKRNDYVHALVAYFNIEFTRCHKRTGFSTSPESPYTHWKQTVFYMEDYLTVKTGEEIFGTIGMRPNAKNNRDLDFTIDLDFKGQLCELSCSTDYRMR
# ASSAY_COMMENT: PRMT1 biochemical assay (3H-SAM Flashplate, peptide substrate)
# Text: General Materials. […] General Procedure for PRMT1 Enzyme Assays on Peptide Substrates. […] The plates were then read in a PerkinElmer TopCount plate reader to measure the quantity of ^3H-labeled peptide bound to the Flashplate surface, measured as disintegrations per minute (dpm) or alternatively, referred to as counts per minute (cpm). […]
pIC50: −log10 of the molar value.
MEASURED_QUANTITY: pIC50

Answered cases to consult:
{"COMPOUND": "CN(CCN)Cc1c[nH]nc1-c1ccc(OC(F)F)cc1 [Compound 94]", "TEST_SYSTEM": "Full-length human PRMT1 isoform 1 (Homo sapiens, UniProt Q99873)", "pIC50": "> 7.00"}
{"COMPOUND": "CCNC(=O)c1cccc(-c2n[nH]cc2CN(C)CCNC)c1 [Compound 43]", "TEST_SYSTEM": "Full-length human PRMT1 isoform 1 (Homo sapiens, UniProt Q99873)", "pIC50": "6.00 to 7.00"}
{"COMPOUND": "CNCCN(C)Cc1c[nH]nc1-c1ccc(OCCCOC)cc1 [Compound 209]", "TEST_SYSTEM": "Full-length human PRMT1 isoform 1 (Homo sapiens, UniProt Q99873)", "pIC50": "> 7.00"}
{"COMPOUND": "CN(CCN)Cc1cn(CC2COC2)nc1-c1ccc(F)cc1 [Compound 79]", "TEST_SYSTEM": "Full-length human PRMT1 isoform 1 (Homo sapiens, UniProt Q99873)", "pIC50": "< 5.00"}

Query compound follows.
Query the reported pIC50 for Full-length human PRMT1 isoform 1 (Homo sapiens, UniProt Q99873); item: CNCCN(C)Cc1c[nH]nc1-c1ccccc1OC(F)(F)F [Compound 40] 6.00 to 7.00

====

# TEST_SYSTEM: Full-length human PRMT6 (Homo sapiens, UniProt Q96LA8)
# Sequence (Q96LA8 with tags, fused parts or gaps): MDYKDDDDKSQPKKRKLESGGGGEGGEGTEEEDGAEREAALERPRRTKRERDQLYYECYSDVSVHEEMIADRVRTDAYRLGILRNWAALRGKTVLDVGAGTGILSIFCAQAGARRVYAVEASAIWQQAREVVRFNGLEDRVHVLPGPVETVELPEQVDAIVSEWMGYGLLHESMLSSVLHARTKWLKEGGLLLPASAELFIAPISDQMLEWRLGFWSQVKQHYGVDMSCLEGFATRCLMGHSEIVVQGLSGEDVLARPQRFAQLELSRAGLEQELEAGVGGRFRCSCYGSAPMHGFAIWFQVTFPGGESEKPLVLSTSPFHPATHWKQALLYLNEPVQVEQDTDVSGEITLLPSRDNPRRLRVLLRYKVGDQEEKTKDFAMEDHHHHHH
For each entry below, report its IC50 value.

{"COMPOUND": "CNCCN(C)Cc1cnn(C2CCCC2)c1-c1ccc(OC(C)C)cc1 [Compound 255]", "VAL": "< 100 nM"}
{"COMPOUND": "CNCCN(C)Cc1cn(C)nc1-c1ccc(OC(C)C)cc1 [Compound 243]", "VAL": "101 to 1000 nM"}
{"COMPOUND": "C=C(C)C(=O)Nc1cccc(-c2[nH]ncc2CN(C)CCNC)c1 [Compound 257]", "VAL": "101 to 1000 nM"}
{"COMPOUND": "CNCCN(C)Cc1c[nH]nc1-c1cccc(NC(C)=O)c1 [Compound 42]", "VAL": "< 100 nM"}
{"COMPOUND": "NCCN(Cc1c[nH]nc1-c1ccc(F)cc1)C1CC1 [Compound 78]", "VAL": "< 100 nM"}

Report IC50 for each item below.
1. CNCCN(C)Cc1c[nH]nc1-c1ccc(N)cc1 [Compound 33]
2. CNCCN(C)Cc1c[nH]nc1-c1cc(F)ccc1F [Compound 50]
3. CN(CCN)Cc1cn(CC(O)CO)nc1-c1ccc(F)cc1 (centres unmarked) [Compound 76]
4. CNCCN(C)Cc1c[nH]nc1-c1ccc(OCCCOC)c(Cl)c1 [Compound 228]
5. CNCCN(C)Cc1c[nH]nc1-c1ccc(Oc2ccccc2)c(C(=O)N(C)C)c1 [Compound 233]
6. CC(C)CN1C(=O)COc2cc(-c3n[nH]cc3CN(C)CCN)ccc21 [Compound 193]
7. CN(CCN)Cc1c[nH]nc1-c1ccc(Oc2ccccc2)c(C#N)c1 [Compound 202]
8. CC(C)Cc1cccc(-c2n[nH]cc2CN(C)CCN)c1 [Compound 235]

1: < 100 nM; 2: < 100 nM; 3: 1010 to 3000 nM; 4: < 100 nM; 5: < 100 nM; 6: 101 to 1000 nM; 7: < 100 nM; 8: 101 to 1000 nM

// for each compound below, give its IC50
1. CNCCN(C)Cc1cn(CC(=O)O)nc1-c1ccc(OC(C)C)cc1 [Compound 250]
2. CNCCN(C)Cc1cn(CC(N)=O)nc1-c1ccc(OC(C)C)cc1 [Compound 251]
3. CNCCN(C)Cc1cn(C(C)C)nc1-c1ccc(F)cc1 [Compound 15]
4. CN(CCN)Cc1c[nH]nc1-c1ccc(F)cc1Cl [Compound 89]
5. CN(CCN)Cc1c[nH]nc1-c1ccc(F)c(Cl)c1 [Compound 124]
6. CNCCN(C)Cc1c[nH]nc1-c1ccc(O)cc1 [Compound 27]
7. CNCCN(C)Cc1c[nH]nc1-c1cccc(OC)c1OC [Compound 54]

["3010 to 10000 nM", "1010 to 3000 nM", "101 to 1000 nM", "< 100 nM", "< 100 nM", "< 100 nM", "101 to 1000 nM"]
